test: NCI Yeast Anticancer Drug Screen. Data for the mlh1 rad18 strain (AID 175); details: S. cerevisiae mlh1 rad18 strain growth inhibition; at 50.0 µM; active compounds read high
Compounds without any hit were thinned out: in the full panel of roughly 79,000, 15% have a hit. Where a SMILES comes first, the peptide text is derived from it. [ ]: non-standard residue; d: D form. Ac5c = NC1(C(=O)O)CCCC1
MEASURED_METRIC: growth inhibition (%)
Your answer is read as %, so omit the unit and give the number.

Worked cases, answers included:
| COMPOUND | VALUE |
| --- | --- |
| CCOc1ccccc1NC(=O)/C=C1\NC(=O)CS1 | 40.4 |
| CC1(C)C(CCO)CC1CCO (configuration not stated) | -7.5 |
| C1#CCSCC#CCSC1 | 24 |
| CCN(CC)C(=S)Nc1ccc(-c2cc3ccc(O)cc3oc2=O)cc1 | 6.15 |
| C[C@]12CCC(=O)C=C1CC[C@@H]1[C@@H]2CC[C@]2(C)C(=O)NC(=O)C[C@@H]12 | -16.9 |
| CCc1cc(Cl)c(O)c(Cl)c1 | 19 |
| Cc1nc2ccc(Cl)cc2c(-n2ccnc2)c1CCn1ccnc1 | -3.7 |
| COC(=O)C1CCC(=O)N1CN(C(C)=O)c1cc(OC)ccc1OC (configuration not stated) | -50.1 |

Recorded growth inhibition (compound Cc1cc(=O)[nH]c2c1CCCC2 ): 8.25

Recorded growth inhibition (compound CCN1C(=O)N(C)C(O)c2c1nc1ccccn1c2=O (configuration not stated) ): -19.6

Recorded growth inhibition (compound O=C(NC1c2ccccc2CCc2ccccc21)C(F)(F)F ): 22.6

Recorded growth inhibition (compound NC1(C(=O)NC2(C(=O)O)CCCC2)CCCC1 (H-[Ac5c]-[Ac5c]-OH) ): 40.4

Taken from PubChem BioAssay (NCI).
